The reported numbers originate from patent US8686150B2.

Target: human full-length recombinant PKC βII (Homo sapiens, UniProt P05771)
Construct: Active human full-length recombinant PKC βII; purchased Invitrogen GmbH, Darmstadt, Germany
Sequence (P05771 1-673 isoform P05771-2): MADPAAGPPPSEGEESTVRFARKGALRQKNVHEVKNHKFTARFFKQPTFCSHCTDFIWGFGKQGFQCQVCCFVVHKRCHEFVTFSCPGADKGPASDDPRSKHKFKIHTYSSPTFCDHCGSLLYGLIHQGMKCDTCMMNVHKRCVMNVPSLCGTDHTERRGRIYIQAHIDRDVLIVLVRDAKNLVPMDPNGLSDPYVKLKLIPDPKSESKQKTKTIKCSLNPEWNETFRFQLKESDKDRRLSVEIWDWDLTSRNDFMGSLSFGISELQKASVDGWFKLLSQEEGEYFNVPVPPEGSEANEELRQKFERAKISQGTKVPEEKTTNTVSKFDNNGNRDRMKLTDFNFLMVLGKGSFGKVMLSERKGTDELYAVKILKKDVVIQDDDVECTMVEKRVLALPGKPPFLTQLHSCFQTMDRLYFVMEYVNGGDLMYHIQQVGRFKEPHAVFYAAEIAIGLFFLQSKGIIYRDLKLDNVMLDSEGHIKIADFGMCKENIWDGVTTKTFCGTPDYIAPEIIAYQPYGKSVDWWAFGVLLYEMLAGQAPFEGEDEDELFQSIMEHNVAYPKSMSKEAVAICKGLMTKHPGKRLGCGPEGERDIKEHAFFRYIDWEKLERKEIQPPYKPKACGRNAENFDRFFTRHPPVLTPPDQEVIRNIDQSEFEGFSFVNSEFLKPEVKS
Test: Determination of PKC βII inhibition (Caliper mobility-shift kinase assay, Fluorescein-RFARKGSLRQKNV peptide substrate)
Assay type: biochemical
Details: example compounds at a final concentration of 1.14 μM (±0.15 μM)
READOUT_KIND: inhibition at 1.14 µM (%)

A selection of reference data follows.
>  <MOLECULE>
CCc1n[nH]c2nc(-c3ccc(O)cc3)cc(C(=O)NC3CN4CCC3CC4)c12 (centres unmarked) [Example 159]

>  <READOUT_KIND>
inhibition at 1.14 µM

>  <UNIT_TAG>
%

>  <OBSERVED_VALUE>
55

$$$$
>  <MOLECULE>
Cc1n[nH]c2nc(-c3ccc(O)cc3F)cc(C(=O)N3CC(C)(C)NCC3C)c12 (centres unmarked) [Example 427]

>  <READOUT_KIND>
inhibition at 1.14 µM

>  <UNIT_TAG>
%

>  <OBSERVED_VALUE>
99

$$$$
>  <MOLECULE>
Cc1n[nH]c2nc(-c3ccc(O)cc3)cc(C(=O)NCC(c3ccccc3)N3CCCC3)c12 (centres unmarked) [Example 391]

>  <READOUT_KIND>
inhibition at 1.14 µM

>  <UNIT_TAG>
%

>  <OBSERVED_VALUE>
84

$$$$

(1) Cc1n[nH]c2nc(-c3ccc(O)c(F)c3)cc(C(=O)NCC(C)(CN3CCCC3)c3ccccn3)c12 (centres unmarked) [Example 371]
(2) Cc1n[nH]c2nc(-c3ccc(O)c(F)c3)cc(C(=O)N3CCC(N)C3)c12 (centres unmarked) [Example 336]
Return label of the item with the larger inhibition at 1.14 µM. Candidates: 1 , 2 . To answer, give the label that identifies your chosen option.
2

(1) Cc1n[nH]c2nc(-c3ccc(O)cc3F)cc(C(=O)N3CCNCC3C(F)(F)F)c12 (centres unmarked) [Example 60]
(2) Cc1n[nH]c2nc(-c3ccc(O)c(F)c3)cc(C(=O)NC3CCCN(C)C3)c12 (centres unmarked) [Example 355]
Hi! Which is lower in terms of inhibition at 1.14 µM, the first one 1 or the second one 2 ? To answer, give the label that identifies your chosen option.
2
